# System Tested: T1, Human GDF8 homodimer (mature human Growth and Differentiation Factor-8) (human, UniProt O14793 267-375)
# T1 construct: also called hGDF8; myostatin
# T1 sequence: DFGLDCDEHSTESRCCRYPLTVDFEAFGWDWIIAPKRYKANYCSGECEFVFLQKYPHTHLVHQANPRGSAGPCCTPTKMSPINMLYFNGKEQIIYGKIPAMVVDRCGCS
# Assay Overview: SPR, antibody captured, 25 nM antigen
# Protocol: Equilibrium dissociation constants (KD values) for antigen binding to selected antibodies were determined by surface kinetics using a real-time biosensor surface plasmon resonance assay (BIACORE™ 2000). […] Human GDF8 homodimer, hGDF11 homodimer, or hGDF5 homodimer at 25 nM was injected over the captured antibody surfaces, and antigen-antibody binding and dissociation were monitored in real time at room temperature. […]
Property Measured: Kd

input: Quote Kd reported for 4E3-7 (antibody, V domains shown) VH: EVQLLESGGGLVQPGGSLRLSCVASRFTFSSNAMSWVRQAPGTGLEWVSAITGSGSRTYYADSVKGRFTISRDNSKNTVYLQMNSLRGEDTAVYYCAKDQGGTWNYGDFDYWGQGTLVTVSS VL: EIVMTQSPATLSVSPGERATLSCRASQSVSSNLAWYQQKPGQAPRLLIYGASTRATGLPARFSGSGSGTDFTLTISSLQSEDFAVYYCQQYNNWPLTFGGGTKVEIK please.
output: 1.89 nM
